Reference for the values: the supplement of paper PMC10883282

test system: SW684; test: relative viability vs DMSO control (72 h) (fraction); higher = more viable cells; settings: 0.00457 µM

COMPOUND: CCN(CCCOc1ccc2c(Nc3cc(CC(=O)Nc4cccc(F)c4)[nH]n3)ncnc2c1)CCOP(=O)(O)O [Barasertib]
relative viability: 1.15
//
COMPOUND: Cc1cn(-c2cc(NC(=O)c3ccc(C)c(Nc4nccc(-c5cccnc5)n4)c3)cc(C(F)(F)F)c2)cn1 [Nilotinib]
relative viability: 1.07
//
COMPOUND: COc1cc2nccc(Oc3ccc(NC(=O)C4(C(=O)Nc5ccc(F)cc5)CC4)cc3)c2cc1OC [Cabozantinib]
relative viability: 1.2
//
COMPOUND: CCCCCCCCCCCCCCCCCCOP(=O)([O-])OC1CC[N+](C)(C)CC1 [Perifosine]
relative viability: 1.14
//
COMPOUND: CCN(c1cc(-c2ccc(CN3CCOCC3)cc2)cc(C(=O)NCc2c(C)cc(C)[nH]c2=O)c1C)C1CCOCC1 [Tazemetostat]
relative viability: 1.1
//
COMPOUND: COc1cc2ncnc(Nc3cccc(Cl)c3F)c2cc1OC(=O)N1CCN(C)C[C@H]1C [AZD-3759]
relative viability: 1.13
